Every entry's value here was drawn from ChEMBL document CHEMBL1130286.

Task for the reader: assign each of the following compounds its reported half-life.
# TEST_NAME: t1/2 is the time taken for the conversion of nicotinamides to isothiazolopyridine at pH=1.0
# Type: ADME

Kindly indicate its recorded half-life. Item: COc1cc(OC)c(OC)cc1C[S+]([O-])c1ncccc1C(=O)Nc1ccncc1 (stereo unspecified) < 1.2 min

Kindly indicate its recorded half-life. Item: COc1ccc(C[S+]([O-])c2ncccc2C(=O)Nc2ccncc2)c(OC)c1C (stereo unspecified) 7.2 min

Kindly indicate its recorded half-life. Item: COCOCCOc1cc(OC)ccc1C[S+]([O-])c1ncccc1C(=O)Nc1ccncc1 (stereo unspecified) < 1.2 min

Kindly indicate its recorded half-life. Item: COCOc1cc(OC)ccc1C[S+]([O-])c1ncccc1C(=O)Nc1ccncc1 (stereo unspecified) < 1.2 min

Kindly indicate its recorded half-life. Item: COc1ccc(C[S+]([O-])c2ncccc2C(=O)Nc2ccncc2)c(OCCF)c1 (stereo unspecified) < 1.2 min

Kindly indicate its recorded half-life. Item: COc1cc(C)c(C[S+]([O-])c2ncccc2C(=O)Nc2ccncc2)c(OC)c1 (stereo unspecified) < 1.2 min
